- Tested on: ATP;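 further: ATP exposure 15 min at 22 °C before imaging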
- protocol-notes: switch fluorescence ratio, 500 uM ATP over buffer (Cy3 cluster intensity, sum of 5 cycles each) (fold (ratio)); higher = stronger signal-on switching upon ATP binding; sequences stand for … in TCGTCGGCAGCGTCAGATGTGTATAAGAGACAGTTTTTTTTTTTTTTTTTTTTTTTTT…TC
- condition-parameters: aptamer strand: ATP DNA aptamer (quencher-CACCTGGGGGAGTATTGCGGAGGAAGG + anchor), 100 nM annealed; ATP concentration: 500 uM
result-type: switch fluorescence ratio

Guide cases for switch fluorescence ratio, answers given:
{"columns": ["biosequence", "switch fluorescence ratio"],
 "data": [
  ["TTCTTTTACT", 1.01],
  ["AATGTAAGGT", 1.01],
  ["TGGTTCTGGG", 0.973],
  ["GTGTCTGGGG", 0.986],
  ["TTAGGTGAGG", 0.993]
]}

q: Could you share what switch fluorescence ratio was measured for TTGGCAGGCC , tested on ATP?;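 further: ATP exposure 15 min at 22 °C before imaging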
a: 1.02

q: Same question, AGTTATCCAT this time
a: 1

q: Repeat for the following sequence: AGGATTTAGG
a: 0.983

q: How about TGGCGCTGGG ?
a: 0.978

###

- System: ATP;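 further: ATP exposure 15 min at 22 °C before imaging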
- protocol-notes: switch fluorescence ratio, 500 uM ATP over buffer (Cy3 cluster intensity, sum of 5 cycles each) (fold (ratio)); higher = stronger signal-on switching upon ATP binding; sequences stand for … in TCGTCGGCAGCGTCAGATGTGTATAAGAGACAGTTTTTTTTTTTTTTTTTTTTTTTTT…TC
- condition-parameters: aptamer strand: ATP DNA aptamer (quencher-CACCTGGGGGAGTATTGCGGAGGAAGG + anchor), 100 nM annealed; ATP concentration: 500 uM
result-type: switch fluorescence ratio
I'd appreciate a reply containing only the number, no unit.

Completed entries (count: 3):
{"columns": ["biosequence", "switch fluorescence ratio"],
 "data": [
  ["TTCGGGAGTG", 0.985],
  ["TTAAAGGGC", 0.973],
  ["TAAAAGGGCT", 0.999]
]}

q: Consider the sequence TGATGATATA and give its measured switch fluorescence ratio.
a: 1.02

###

- System: ATP;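 further: ATP exposure 15 min at 22 °C before imaging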
- protocol-notes: switch fluorescence ratio, 500 uM ATP over buffer (Cy3 cluster intensity, sum of 5 cycles each) (fold (ratio)); higher = stronger signal-on switching upon ATP binding; sequences stand for … in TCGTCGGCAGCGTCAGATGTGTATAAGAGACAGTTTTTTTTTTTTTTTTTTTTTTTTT…TC
- condition-parameters: aptamer strand: ATP DNA aptamer (quencher-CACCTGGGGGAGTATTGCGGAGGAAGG + anchor), 100 nM annealed; ATP concentration: 500 uM
Each item that follows carries a reported switch fluorescence ratio.

# example entries with known answers
{"columns": ["biosequence", "switch fluorescence ratio"],
 "data": [
  ["GTGATGAACG", 1.01],
  ["TGAAGGGTTG", 1.01],
  ["GGGGGTCGGT", 1.01],
  ["ACGAGGGGAA", 1.01],
  ["ATTTTTTAGG", 0.993]
]}

q: Param readout = switch fluorescence ratio; param system = ATP; param query = GGGGAAGAAC ; response: value;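 further: ATP exposure 15 min at 22 °C before imaging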
a: 1.14

q: One more sequence: GGGGATCTTA
a: 1

q: Same lookup for TTATTCGGCG , please.
a: 1

q: Also, AGGGGCAAAT please.
a: 1.01

q: Now consider AACATATTGG .
a: 1.01

q: Likewise for TCCGATGTTT ?
a: 1.76

q: What about this sequence? AGTCTCAGGC
a: 1

q: Try AGTTGTCCAT next.
a: 0.977

q: Would you kindly repeat that for CTAATCATCT ?
a: 1.01

q: Would you mind doing TTTAGGCGGC as well?
a: 1.03

q: Same question, AGGTTCCTCT this time
a: 1.04

q: Also need TAGTACGGAT , thanks.
a: 1.01

q: Do the same for GAATGGCACA please
a: 0.998

q: Lookup ATCATTCTTC
a: 0.977

q: TAATACCAAG , same question.
a: 1

q: Further, for GGGGGACTGT ?
a: 0.938

q: What would you report for TGATTTTTGT ?
a: 0.997

q: Please give the result for TTTTGAACGC too.
a: 1.06

q: Thanks! And TGGTGGCTGG ?
a: 0.989

q: Repeat with ATAAGTCAAA
a: 0.99

q: # iterate: GGTTGATACG
a: 0.959

q: Continue with CGTGTGTATG
a: 0.997
